target of assay: human IL-17A / human IL-17RA (Homo sapiens (Human))
Sequence (Q16552 24-155): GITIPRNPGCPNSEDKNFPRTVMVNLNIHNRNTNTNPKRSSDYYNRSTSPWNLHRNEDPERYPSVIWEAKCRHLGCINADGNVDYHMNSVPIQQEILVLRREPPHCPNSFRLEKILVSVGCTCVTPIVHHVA
assay remarks: Human IL-17A biochemical assay (HTRF, blocking of IL-17A binding to IL-17RA)
assay conditions: 0.4 nM IL-17A, 0.3 nM IL-17RA, max compound concentration 10 uM
Could you please mark criterion met for values of IC50 below 200 nM and criterion not met for values at or above it?

Completed entries (count: 5):
# compound, assigned label
data = [
    ("CNC(=O)C1(N2C[C@@H](C(C)C)NC2=O)Cc2cc(F)c(NC(=O)[C@@H](NC(=O)c3ccnn3C)C3CCCCC3)cc2C1 (stereo partly shown)", "criterion met"),
    ("Cc1nonc1C(=O)N[C@H](C(=O)Nc1ccc2c(c1)CC(C(=O)Nc1ccccc1C#N)(N1C[C@@H](C(C)C)NC1=O)C2)C(C1CC1)C1CC1 (stereo partly shown)", "criterion met"),
    ("COCC1(N2C[C@@H](C(C)C)NC2=O)Cc2ccc(NC(=O)[C@@H](NC(=O)c3nonc3C)C(C3CC3)C3CC3)cc2C1 (stereo partly shown)", "criterion not met"),
    ("Cc1nonc1C(=O)N[C@H](C(=O)Nc1ccc2c(c1)CC(c1nc3cccc(F)c3[nH]1)(N1CC3(CC3)CNC1=O)C2)C1CCC(F)(F)CC1 (stereo partly shown)", "criterion not met"),
    ("CNC(=O)C1(N2CC(C3CCC3)NC2=O)Cc2ccc(NC(=O)[C@@H](NC(=O)c3ccnn3C)C3CCCCC3)cc2C1 (stereo partly shown)", "criterion met"),
]

Take the compound CNC(=O)C1(N2C[C@@H](C(C)C)NC2=O)Cc2ccc(NC(=O)[C@@H](NC(=O)c3ncnn3C)C3CCCCC3)cc2C1 (stereo partly shown) and say whether its IC50 is less than 200 nM.
criterion not met

Take the compound COCC1(N2CC3(CC3)CNC2=O)Cc2ccc(NC(=O)[C@@H](NC(=O)c3ccnn3C)C(C3CC3)C3CC3)cc2C1 (stereo partly shown) and say whether its IC50 is less than 200 nM.
criterion met
